Experiment: reduced ATP signal of yeast carrying P. falciparum Hsp90 – S. cerevisiae, BacTiter-Glo luminescence, single point, set 2, antimalarial PfHsp90 inhibitor project, primary screen (AID 504621);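 also: yeast relying on Plasmodium falciparum Hsp90 in place of its own; 0% = DMSO neutral controls and 100% = 20 µM radicicol positive controls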
Settings: S. cerevisiae expressing PfHsp90, growth, 48 h, at 9.4 µM, yeast lacking PDR1 and PDR3 efflux regulators
The whole screen tested about 310,000 compounds, of which about 970 (0.31%) were called active.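 The calls were made as follows: active = every replicate shows inhibition above about 80%, whatever the replicate mean (limit read from the data); inconclusive = mean inhibition reaches the set limit but some replicate falls short; inactive = the rest.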 The full list was thinned out, with actives kept by preference.
Classes used: 1.0 = active, 0.0 = inactive

# molecule, classification
measured = [
    ("CC(C)Cn1cnc2c(SCc3ccc(Cl)cc3)nc(N)nc21", 0.0),
    ("Cc1ccc(CS(=O)(=O)c2ncc(Cl)c(C(=O)Nc3nnc(C)s3)n2)cc1", 0.0),
    ("C/C(=N\\NC(=O)c1ccccc1F)c1ccccn1", 0.0),
    ("COc1ccc(/C=C2/CCCc3ccccc3C2=O)cc1", 0.0),
    ("CC[C@@H]1Cc2cc(O)ccc2C2=C1c1ccc(O)cc1C[C@H]2CC", 1.0),
    ("COC(=O)CC(CC(=O)OC)n1cccc1", 0.0),
    ("O=C(Nc1nc(-c2ccco2)c(-c2ccco2)s1)c1ccco1", 1.0),
    ("CCCCC(=O)NC(c1ccc(OC)c(OC)c1)c1ccc2cccnc2c1O (stereo unspecified)", 0.0),
    ("CCOC(=O)C1CCCN(C(=O)CN(c2ccc(OC)cc2)S(=O)(=O)c2c(C)noc2C)C1 (stereo unspecified)", 0.0),
    ("O=C1OCC2=C1C(c1ccc(Cl)cc1)c1cc3c(cc1O2)OCO3 (stereo unspecified)", 0.0),
    ("O=C(OC12CC3CC(CC(C3)C1)C2)c1ccc(NCc2cc(O)ccc2O)cc1", 1.0),
    ("CCOc1ccc(NC(=O)c2nc(SCC)ncc2Cl)cc1", 0.0),
    ("CC(=O)CCC(=O)c1ccc2ccccc2c1", 0.0),
    ("Cc1cccc(NC(=O)c2nc(S(=O)(=O)Cc3ccccc3)ncc2Cl)c1", 1.0),
    ("CC(C)(C)OC(=O)N(Cc1ccccc1)Cc1ccc(OCc2cccc(NC(=O)c3ccccc3)c2)cc1", 0.0),
    ("O=C(Nc1ccccc1)c1ccco1", 0.0),
    ("c1ccc(CCc2ccccn2)cc1", 0.0),
    ("CSc1ncc(Cl)c(C(=O)Nc2cc(C)ccc2C)n1", 0.0),
    ("CC(=NNC(=S)N1CCCCCC1)c1ccccn1", 1.0),
    ("NS(=O)(=O)c1ccc(CCNC(=O)c2ccc(Cl)c(S(=O)(=O)N3CCCCCC3)c2)cc1", 0.0),
    ("O=C(Nc1c(Br)cc2c(c1Br)Cc1cc([N+](=O)[O-])ccc1-2)C(Cl)Cl", 0.0),
    ("COc1ccc(CCNC(=O)COc2cc(C)cc3oc(=O)c(C)c(C)c23)cc1OC", 0.0),
    ("Cc1cc(N=Nc2ccc3ccccc3c2)ccc1O", 1.0),
    ("COC(=O)c1ccc(NCc2cc(O)ccc2O)cc1", 0.0),
    ("COc1ccccc1C(=O)c1ccccc1C(=O)c1ccccc1", 0.0),
    ("CCN1C[C@@H]2[C@@H]3C(=O)N(C)C(=O)[C@@H]3[C@](C)(C1=O)N2C(=O)c1ccccc1", 0.0),
]

* * *

Experiment: reduced ATP signal of yeast carrying P. falciparum Hsp90 – S. cerevisiae, BacTiter-Glo luminescence, single point, set 2, antimalarial PfHsp90 inhibitor project, primary screen (AID 504621);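 also: yeast relying on Plasmodium falciparum Hsp90 in place of its own; 0% = DMSO neutral controls and 100% = 20 µM radicicol positive controls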
Details: S. cerevisiae expressing PfHsp90, growth, 48 h, at 9.4 µM, hits give high values, yeast lacking PDR1 and PDR3 efflux regulators
Screen size: about 310,000 compounds; about 970 (0.31%) were called active. This is one part of a sample in which actives are shown more often than they occur.

# compound, inhibition [%]
rows = [
    ("O=[N+]([O-])/C=C/c1ccc2c(ccn2Cc2ccccc2)c1", 104),
    ("COc1ccc(/C=C/C(=O)c2ccc(OC)cc2O)cc1", 3.31),
    ("S=c1[nH]nc(-c2cc(-c3ccccc3)n[nH]2)n1/N=C/c1c2ccccc2cc2ccccc12", -28.2),
    ("CC(C)OC(=O)c1ccc(NCc2cc(O)ccc2O)cc1Cl", 121),
    ("O=[N+]([O-])c1ccc(N=NNc2ccc([N+](=O)[O-])cc2)cc1", -30.4),
    ("O=C(CC(O)(C(F)(F)F)C(F)(F)F)Nc1ccc(Cl)c(Cl)c1", 123),
    ("CC(C=Cc1ccccc1)=NNS(=O)(=O)c1ccc([N+](=O)[O-])cc1", -1.29),
    ("CCCCCCCCNS(=O)(=O)CCNC1CCCCC1", 21.1),
    ("CCN(/N=C/c1ccccc1)c1cc(=O)n(C)c(=O)[nH]1", -32.6),
    ("O=C(Nc1ccccc1)c1nnsc1S(=O)(=O)c1ccc(Cl)cc1", 126),
    ("CC(=O)Oc1ccc(OC(C)=O)c2c1C1C=CC2CC1", -4.99),
    ("Oc1c(Cl)cc(Cl)c(Cl)c1Cc1c(O)c(Cl)cc(Cl)c1Cl", 108),
    ("CN(/N=C/c1ccccc1)C(=S)c1ccccc1", -15.5),
    ("CN(C)C(=S)N=c1ssc(=S)n1Cc1ccco1", -41.1),
    ("CC(C)NC(=O)c1ccc(Cl)cc1Cl", -8.78),
    ("Cc1cc(-c2n[nH]c(=S)n2/N=C/C(Br)=C/c2ccccc2)n[nH]1", 109),
    ("O=C(Cc1ccc(Cl)c(Cl)c1)Nc1ccc(SC(F)F)cc1", 12.6),
    ("COc1ccc(-c2ccc3c(c2)[C@@H]2C[C@H](N(C)S(=O)(=O)c4ccccc4)[C@H]([C@H](C)O)C(=O)N2CC3)cc1", 6.39),
    ("CC1(C)C(=O)CCC2(C)C1=CCC1C2C(=O)CC2(C)C1CCC2(O)C(=O)CO (stereo unspecified)", 20.2),
    ("COc1ccc(CC(=O)NC(C)c2ccc(Cl)c(Cl)c2)cc1S(=O)(=O)N1CCOCC1 (stereo unspecified)", 15.2),
    ("Oc1ccc2ccccc2c1N=Nc1nccs1", 131),
    ("COc1ccc(Cn2cc(CN3CCS(=O)(=O)N(Cc4ccc(-c5cccc(Cl)c5)cc4)C(C)C3=O)nn2)cc1 (stereo unspecified)", -24.7),
    ("c1ccc(C(=NNc2nc3ccccc3s2)c2ccccn2)cc1", 108),
    ("Cc1nn(-c2ncccn2)c2c1C(=O)CC(C)(C)C2Br (stereo unspecified)", -6.87),
    ("c1ccc(NCc2cccc3ccccc23)nc1", 3.43),
    ("COc1ccc(/C=C/C(=O)c2cc(Br)ccc(=O)c2O)cc1", 99.7),
    ("CC(C)(C)OC(=O)N1CCC(C(=O)Nc2cccc(C(=O)NCCc3ccccc3)c2)CC1", 5.32),
    ("NNc1cccc(C=Cc2ccccc2)cc1=O", 17.2),
    ("O=C(CCNC(=O)c1ccccc1)Nc1nc2ccccc2s1", -3.35),
    ("c1ccc2sc(NN=C3CCCC3)nc2c1", 7.45),
    ("C=CC[C@@H](Cc1ccc(F)cc1)C(=O)OC[C@H]1CCCN1C(=O)[C@H](CC=C)CC(=O)N(CCO)Cc1ccccc1", 6.25),
    ("COc1ccc(C(=O)/C=C/c2ccc(OC3CSC3)cc2)cc1", 12.6),
    ("CCOC(=O)[C@H]1[C@H]2COc3ccc(Br)cc3[C@@H]2N2C(=O)CN(C)C(=O)[C@@]12C", 3.33),
    ("CN(CCc1ccccc1)C(=O)c1cccc(NC(=O)Cc2cccc(NC(=O)C3CCCN(C(=O)CCc4ccccc4)C3)c2)c1 (stereo unspecified)", -1.39),
    ("Cc1cccc(C=CC(=O)c2ccc(Cl)cc2)c1", 5.15),
    ("Oc1ccc(/C=N/N(Cc2ccccc2)c2ccccc2)cc1", 96.6),
    ("COC1C(CO)OC(n2cnc3c(=S)nc(N)[nH]c32)C1O (stereo unspecified)", 24.5),
    ("CCC(=O)/C(=C(/O)c1ccccc1)c1nc2ccccc2[nH]1", -12.2),
    ("COC(=O)Cn1cc(/C=C/[N+](=O)[O-])c2ccccc21", -17),
    ("CN(O)C(=S)c1ccccc1", 104),
    ("CN(C)CCNC(=O)c1ccc(Cl)c2cc3ccccc3nc12", -3.1),
    ("C=CCOC(=O)N1CCC2CC1c1cc(-c3ccc(OC)cc3)ccc12 (stereo unspecified)", -3.16),
    ("O=C(CC1SCCNC1=O)Nc1ccc(Cl)c(Cl)c1 (stereo unspecified)", 15),
    ("COc1ccc(CCN2CC(C(=O)OCC(=O)NCc3ccccc3Cl)CC2=O)cc1OC (stereo unspecified)", -2.54),
    ("Oc1ccc(N=Nc2nccs2)c(O)c1", 4.56),
    ("O=C(NC1=CC(=O)c2ccccc2C1=O)c1ccccc1", 54.3),
]

Sourced from PubChem BioAssay AID504621
